test system: PFTAIRE2; conditions: concentration: 1 μM, replicates: in singlicate; n = 1;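 note: KINOMEscan kinase panel screen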
Label 1.0 when %Inh < 10%; otherwise 0.0.

**Q:** Does the reported %Inh of Clc1ccc(-c2nn3ncccc3c2-c2ccnc(Nc3ccc4c(c3)OCCO4)n2)cc1 stay below 10%?
**A:** 1.0

**Q:** Consider the compound Cl.c1ccc(-c2ccc3c(Nc4ccc5[nH]ccc5c4)ccnc3c2)nc1 . Is its %Inh strictly less than 10%?
**A:** 1.0

**Q:** Field: below-cutoff. Rule: recorded %Inh strictly less than 10%. Subject: FC(F)(F)c1ccc(/C=C/c2cncnc2Nc2ccc3[nH]c(Cc4ccccc4)nc3c2)cc1
**A:** 0.0

**Q:** Confirm or reject: %Inh of O=C(NC1CCN(c2ccnc(Nc3ccc(F)cc3)n2)C1)c1cc2ccccc2s1 (centres unmarked) lies strictly below 10%
**A:** 0.0

**Q:** hey, is %Inh for O=C(Nc1cccc(-c2nn3ccccc3c2-c2ccnc(Nc3cccc(C(F)(F)F)c3)n2)c1)c1c(F)cccc1F lower than 10% or not?
**A:** 0.0

**Q:** State whether 10% exceeds %Inh recorded for CCn1c(-c2nonc2N)nc2c(C#CC(C)(C)O)nc(OC[C@H](N)c3ccccc3)cc21 .
**A:** 1.0

**Q:** Please check: %Inh for COc1ccc(Nc2nccc(NCCNC(=O)c3cc4ccccc4s3)n2)cc1 , strictly under 10% or not?
**A:** 0.0

**Q:** Strictly below 10%: is that where %Inh of CNC(=O)c1ccccc1Nc1nc(Nc2ccc(N3CCOCC3)cc2)ncc1Cl.Cl sits?
**A:** 0.0

**Q:** Report whether reported %Inh is lower than 10% (strictly) for O=C(Nc1n[nH]c2cc(-c3ccoc3)ccc12)C1CC1
**A:** 0.0

**Q:** State whether 10% exceeds %Inh recorded for CC(=O)Nc1nc2cnc(Nc3cc(NC(=O)c4cccc(C5(C#N)CC5)c4Cl)ccc3C)nc2s1 .
**A:** 0.0

**Q:** Take the compound CN1CCN(Cc2cccc(-c3ccc4c(Nc5ccc(Oc6ccccc6)cc5)ccnc4c3)c2)CC1 and say whether its %Inh is less than 10%.
**A:** 0.0

**Q:** Below 10% on %Inh? Entry Cn1cc(-c2ccc3c(c2)CCN3C(=O)Cc2cccc(F)c2)c2c(N)ncnc21
**A:** 0.0

**Q:** Determine if Cc1ccc(S(=O)(=O)Nc2ccc(Nc3nccc(Nc4cccc5[nH]ncc45)n3)cc2)cc1 shows %Inh strictly lower than 10%.
**A:** 0.0

**Q:** %Inh strictly < 10% for this compound? Cc1ccc(C(=O)Nc2ccc(Nc3ccnc4cc(-c5nccs5)ccc34)cc2O)cc1.Cl
**A:** 1.0

**Q:** Could you please tell me whether %Inh recorded for CN(C)Cc1ccc(-c2ccc3c(Nc4ccc(Oc5ccccn5)cc4)ccnc3c2)o1 is less than 10%?
**A:** 1.0
